Cited source: paper PMC10786891

# experimental.target: T1, EsCas13d, nuclease-dead (Eubacterium siraeum, UniProt B0MS50, R295A;H300A;R849A;H854A)
# T1 sequence: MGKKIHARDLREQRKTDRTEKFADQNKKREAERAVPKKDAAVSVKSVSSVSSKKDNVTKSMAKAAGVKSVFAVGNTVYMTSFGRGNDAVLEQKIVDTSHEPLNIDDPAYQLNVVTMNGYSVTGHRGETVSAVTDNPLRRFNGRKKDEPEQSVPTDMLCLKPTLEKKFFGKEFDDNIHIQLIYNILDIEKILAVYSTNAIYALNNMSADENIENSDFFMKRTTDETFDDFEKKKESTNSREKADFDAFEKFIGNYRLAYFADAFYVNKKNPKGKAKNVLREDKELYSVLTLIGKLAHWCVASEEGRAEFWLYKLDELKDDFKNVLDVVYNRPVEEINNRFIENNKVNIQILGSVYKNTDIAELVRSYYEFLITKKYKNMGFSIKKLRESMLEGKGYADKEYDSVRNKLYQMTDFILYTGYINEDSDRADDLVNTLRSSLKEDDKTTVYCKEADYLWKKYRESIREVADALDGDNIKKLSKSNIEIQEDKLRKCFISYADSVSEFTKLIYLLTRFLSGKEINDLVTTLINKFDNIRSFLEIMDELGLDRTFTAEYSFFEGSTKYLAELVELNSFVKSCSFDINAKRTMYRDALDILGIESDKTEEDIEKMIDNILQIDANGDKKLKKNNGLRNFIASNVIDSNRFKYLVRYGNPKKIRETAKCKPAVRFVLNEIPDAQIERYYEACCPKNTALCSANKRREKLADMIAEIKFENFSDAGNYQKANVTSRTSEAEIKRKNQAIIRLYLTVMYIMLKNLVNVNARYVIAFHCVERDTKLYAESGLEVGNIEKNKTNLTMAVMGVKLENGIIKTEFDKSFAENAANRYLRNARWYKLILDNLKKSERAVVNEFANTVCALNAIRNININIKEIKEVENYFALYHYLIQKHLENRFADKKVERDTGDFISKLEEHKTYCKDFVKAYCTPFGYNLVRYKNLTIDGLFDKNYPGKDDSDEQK
# test.details: crRNA (strand 1, pre-loaded); Mg2+; 40 mM Tris-HCl pH 7.5, 150 mM NaCl, 6 mM MgCl2, 1 mM DTT, 0.1% Tween-20, 0.2 mg/ml BSA; 25 C; 10 min per concentration, then washed
# condition.details: tags: His6-TwinStrep-SUMO cleaved; N-terminal SNAP kept (SNAP-Surface 488); label: 3' end held by stalled T7 RNA polymerase

- binder: "target 2 MT 5'PFS CUG 3'PFS UCU (mixed) RNA 1: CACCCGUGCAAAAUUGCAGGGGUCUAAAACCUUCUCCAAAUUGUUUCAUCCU RNA 2: GGGAAUGGAUCCACAUCUACGAAUUCCUGAGGAUGAAACAAUUUGGAGAAGUCUAGAUCGGAAGAGCACACGU"
  units.label: "nM"
  Kd: 6.3
- binder: "target 2 MT 5'PFS GAU 3'PFS AGU (mixed) RNA 1: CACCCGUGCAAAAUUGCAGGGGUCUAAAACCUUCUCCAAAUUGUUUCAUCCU RNA 2: GGGAAUGGAUCCACAUCUACGAAUUCGAUAGGAUGAAACAAUUUGGAGAAGAGUAGAUCGGAAGAGCACACGU"
  units.label: "nM"
  Kd: 12.3
- binder: "target 1 insC 3' of 17,insC 3' of 9 (mixed) RNA 1: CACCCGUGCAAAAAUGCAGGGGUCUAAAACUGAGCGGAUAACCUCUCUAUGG RNA 2: GGGAAUGGAUCCACAUCUACGAAUUCGUACCAUAGCAGAGGUUACUCCGCUCACCGAGAUCGGAAGAGCACACGU"
  units.label: "nM"
  Kd: 58
- binder: "target 1 insG 3' of 21,insA 3' of 21 (mixed) RNA 1: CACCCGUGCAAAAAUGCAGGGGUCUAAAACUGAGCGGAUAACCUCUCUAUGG RNA 2: GGGAAUGGAUCCACAUCUACGAAUUCGUACCGAAUAGAGAGGUUAUCCGCUCACCGAGAUCGGAAGAGCACACGU"
  units.label: "nM"
  Kd: 27.3
- binder: "target 1 A1C,A20C (mixed) RNA 1: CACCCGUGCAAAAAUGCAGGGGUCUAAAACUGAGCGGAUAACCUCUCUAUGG RNA 2: GGGAAUGGAUCCACAUCUACGAAUUCGUACCCUAGAGAGGUUAUCCGCUCCCCGAGAUCGGAAGAGCACACGU"
  units.label: "nM"
  Kd: 32
- binder: "target 1 insG 3' of 7,insA 3' of 7 (mixed) RNA 1: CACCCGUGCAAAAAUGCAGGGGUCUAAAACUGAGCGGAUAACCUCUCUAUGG RNA 2: GGGAAUGGAUCCACAUCUACGAAUUCGUACCAUAGAGAGGUUAUCGACGCUCACCGAGAUCGGAAGAGCACACGU"
  units.label: "nM"
  Kd: 10.5
- binder: "target 2 MT 5'PFS GUU 3'PFS CAU (mixed) RNA 1: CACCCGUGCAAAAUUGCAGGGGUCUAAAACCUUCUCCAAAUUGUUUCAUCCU RNA 2: GGGAAUGGAUCCACAUCUACGAAUUCGUUAGGAUGAAACAAUUUGGAGAAGCAUAGAUCGGAAGAGCACACGU"
  units.label: "nM"
  Kd: 14.2
- binder: "target 1 C2G,A18C (mixed) RNA 1: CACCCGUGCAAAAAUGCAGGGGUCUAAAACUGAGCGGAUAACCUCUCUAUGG RNA 2: GGGAAUGGAUCCACAUCUACGAAUUCGUACCAUCGAGAGGUUAUCCGCUGACCGAGAUCGGAAGAGCACACGU"
  units.label: "nM"
  Kd: 44
- binder: "target 1 MT 5'PFS GCA 3'PFS CGC (mixed) RNA 1: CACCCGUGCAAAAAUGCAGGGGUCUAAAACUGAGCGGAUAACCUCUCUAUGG RNA 2: GGGAAUGGAUCCACAUCUACGAAUUCGCACCAUAGAGAGGUUAUCCGCUCACGCAGAUCGGAAGAGCACACGU"
  units.label: "nM"
  Kd: 71
- binder: "target 3 insG 3' of 22,insU 3' of 22 (mixed) RNA 1: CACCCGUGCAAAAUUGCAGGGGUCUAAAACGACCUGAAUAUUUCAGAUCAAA RNA 2: GGGAAUGGAUCCACAUCUACGAAUUCGUUUGUUUGAUCUGAAAUAUUCAGGUCUGCAGAUCGGAAGAGCACACGU"
  units.label: "nM"
  Kd: 28
- binder: "target 2 MT 5'PFS AAG 3'PFS CUG (mixed) RNA 1: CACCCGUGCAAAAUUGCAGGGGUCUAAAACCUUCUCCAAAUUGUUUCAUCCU RNA 2: GGGAAUGGAUCCACAUCUACGAAUUCAAGAGGAUGAAACAAUUUGGAGAAGCUGAGAUCGGAAGAGCACACGU"
  units.label: "nM"
  Kd: 4.9
- binder: "target 2 MT 5'PFS GUC 3'PFS ACU (mixed) RNA 1: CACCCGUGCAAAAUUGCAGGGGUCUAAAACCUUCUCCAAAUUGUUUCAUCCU RNA 2: GGGAAUGGAUCCACAUCUACGAAUUCGUCAGGAUGAAACAAUUUGGAGAAGACUAGAUCGGAAGAGCACACGU"
  units.label: "nM"
  Kd: 20.5
- binder: "target 1 insA 3' of 22,insG 3' of 19 (mixed) RNA 1: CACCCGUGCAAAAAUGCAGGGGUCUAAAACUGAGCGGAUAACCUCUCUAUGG RNA 2: GGGAAUGGAUCCACAUCUACGAAUUCGUACACAUGAGAGAGGUUAUCCGCUCACCGAGAUCGGAAGAGCACACGU"
  units.label: "nM"
  Kd: 51
- binder: "target 1 A9U,G12U (mixed) RNA 1: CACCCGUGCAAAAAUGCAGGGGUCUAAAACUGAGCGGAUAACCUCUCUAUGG RNA 2: GGGAAUGGAUCCACAUCUACGAAUUCGUACCAUAGAGAGUUUUUCCGCUCACCGAGAUCGGAAGAGCACACGU"
  units.label: "nM"
  Kd: 10.9
- binder: "target 2 MT 5'PFS CGC 3'PFS CGG (mixed) RNA 1: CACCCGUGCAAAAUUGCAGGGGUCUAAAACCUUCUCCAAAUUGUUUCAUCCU RNA 2: GGGAAUGGAUCCACAUCUACGAAUUCCGCAGGAUGAAACAAUUUGGAGAAGCGGAGAUCGGAAGAGCACACGU"
  units.label: "nM"
  Kd: 7.3
